# System: Candida albicans
# Protocol Notes: Antifungal activity against Candida albicans MTCC 3958 after 24 hrs by well diffusion method
# Format: functional
# Measurement Setup: MTCC 3958, 24 h
Listing of entries alongside the reported MIC.

# Compound, Target System, MIC / µg/mL
rows = [
    ("Clc1ccc(COC(Cn2ccnc2)c2ccc(Cl)cc2Cl)c(Cl)c1 (stereo not given)", "Candida albicans", 7.8),
    ("O=C(NCCO)c1nc(-c2ccccc2)c2c(C(F)(F)F)cc(-c3ccccc3)nc2n1", "Candida albicans", 31.2),
    ("O=C(c1nc(-c2ccccc2)c2c(C(F)(F)F)cc(-c3ccccc3)nc2n1)N1CCCC1", "Candida albicans", 31.2),
    ("CN1CCN(C(=O)c2nc(-c3ccccc3)c3c(C(F)(F)F)cc(-c4ccccc4)nc3n2)CC1", "Candida albicans", 7.8),
    ("COc1ccc(-c2nc(C(=O)N3CCN(C)CC3)nc3nc(-c4ccccc4)cc(C(F)(F)F)c23)cc1", "Candida albicans", 62.5),
]
